molecular target: Angiotensin-converting enzyme (UniProt P12821)
Sequence (P12821 30-1256): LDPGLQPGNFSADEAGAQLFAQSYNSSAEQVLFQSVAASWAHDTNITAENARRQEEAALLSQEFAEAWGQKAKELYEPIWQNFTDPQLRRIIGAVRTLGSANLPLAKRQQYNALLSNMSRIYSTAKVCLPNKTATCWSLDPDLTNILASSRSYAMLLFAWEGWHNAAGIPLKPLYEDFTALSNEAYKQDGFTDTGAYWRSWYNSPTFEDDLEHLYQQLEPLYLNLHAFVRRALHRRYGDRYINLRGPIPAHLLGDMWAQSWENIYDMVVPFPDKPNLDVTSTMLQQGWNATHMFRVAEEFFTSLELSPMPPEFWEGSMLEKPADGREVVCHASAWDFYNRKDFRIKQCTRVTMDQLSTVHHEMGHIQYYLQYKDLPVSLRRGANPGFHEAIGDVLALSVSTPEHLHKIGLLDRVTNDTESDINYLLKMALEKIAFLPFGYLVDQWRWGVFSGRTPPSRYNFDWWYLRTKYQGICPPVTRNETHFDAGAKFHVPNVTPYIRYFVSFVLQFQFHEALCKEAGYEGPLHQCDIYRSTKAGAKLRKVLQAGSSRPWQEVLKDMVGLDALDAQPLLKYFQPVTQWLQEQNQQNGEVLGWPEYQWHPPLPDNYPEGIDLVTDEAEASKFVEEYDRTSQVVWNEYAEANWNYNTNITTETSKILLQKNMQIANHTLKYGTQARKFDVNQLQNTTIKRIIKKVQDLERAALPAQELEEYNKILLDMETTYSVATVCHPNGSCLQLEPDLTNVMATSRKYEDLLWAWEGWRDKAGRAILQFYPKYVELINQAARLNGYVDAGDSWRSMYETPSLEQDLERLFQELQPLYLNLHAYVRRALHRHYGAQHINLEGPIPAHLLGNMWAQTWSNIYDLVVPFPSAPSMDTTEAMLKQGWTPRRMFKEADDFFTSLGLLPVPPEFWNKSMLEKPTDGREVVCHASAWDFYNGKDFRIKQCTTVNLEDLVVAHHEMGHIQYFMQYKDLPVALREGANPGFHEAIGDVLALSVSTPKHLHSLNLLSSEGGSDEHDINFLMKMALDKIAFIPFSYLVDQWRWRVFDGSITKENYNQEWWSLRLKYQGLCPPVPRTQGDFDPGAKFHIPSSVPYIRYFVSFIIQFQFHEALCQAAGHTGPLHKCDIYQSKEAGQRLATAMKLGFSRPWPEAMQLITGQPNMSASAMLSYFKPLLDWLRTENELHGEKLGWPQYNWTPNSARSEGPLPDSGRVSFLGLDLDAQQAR
No end group written: not given here.
Kindly apply the following: label 1 if IC50 (µM) ACE inhibition (ACE inhibitory activity assay kit, absorbance at 450 nM) is less than 90 µM, label 0 in every other case.

Prompt: Please determine if DLSSAP [Asp-Leu-Ser-Ser-Ala-Pro] is below 90 µM in terms of IC50 (µM) ACE inhibition (ACE inhibitory activity assay kit, absorbance at 450 nM).
Response: label 1

Prompt: Hello, is IC50 (µM) ACE inhibition (ACE inhibitory activity assay kit, absorbance at 450 nM) of the following binder strictly smaller than 90 µM? HVLSA [His-Val-Leu-Ser-Ala]
Response: label 1

Prompt: Confirm or reject: IC50 (µM) ACE inhibition (ACE inhibitory activity assay kit, absorbance at 450 nM) of PTTKTNVPPHF [Pro-Thr-Thr-Lys-Thr-Asn-Val-Pro-Pro-His-Phe] lies strictly below 90 µM
Response: label 0

Prompt: Answer whether the binder EGSGKGVR [Glu-Gly-Ser-Gly-Lys-Gly-Val-Arg] has IC50 (µM) ACE inhibition (ACE inhibitory activity assay kit, absorbance at 450 nM) strictly less than 90 µM
Response: label 1

Prompt: For HCGDGDAPY [His-Cys-Gly-Asp-Gly-Asp-Ala-Pro-Tyr] , is the recorded IC50 (µM) ACE inhibition (ACE inhibitory activity assay kit, absorbance at 450 nM) below the cut-off of 90 µM?
Response: label 0

Prompt: Is IC50 (µM) ACE inhibition (ACE inhibitory activity assay kit, absorbance at 450 nM) strictly under 90 µM for the entry LDSKHEAP [Leu-Asp-Ser-Lys-His-Glu-Ala-Pro] ?
Response: label 0

Prompt: Does the reported IC50 (µM) ACE inhibition (ACE inhibitory activity assay kit, absorbance at 450 nM) of DSVSASP [Asp-Ser-Val-Ser-Ala-Ser-Pro] stay below 90 µM?
Response: label 0
